List of MIC (μg/ml) ± EPI: PAβN values.
Test system: Salmonella enterica ATCC 14028
test_description: MIC assay (microbroth dilution) ± 25 μM EPI
Format: cell-based
test_parameters: + 25 μM PAβN
assay_metric: MIC (μg/ml) ± EPI: PAβN (µg/mL)

chemical_string: CCN1CCN(C(=O)N[C@@H](C(=O)N[C@@H]2C(=O)N3[C@@H]2SC(C)(C)[C@@H]3C(=O)O)c2ccccc2)C(=O)C1=O
test_result: 4
--
chemical_string: C[C@H]1COc2c(N3CCN(C)CC3)c(F)cc3c(=O)c(C(=O)O)cn1c23
test_result: 0.044
--
chemical_string: O=C(O)c1cn(C2CC2)c2cc(N3CCNCC3)c(F)cc2c1=O
test_result: 0.044
--
chemical_string: CO/N=C(\C(=O)N[C@@H]1C(=O)N2C(C(=O)O)=C(COC(C)=O)CS[C@H]12)c1csc(N)n1
test_result: 0.297

====

Test system: Enterobacter aerogenes ATCC 13048
test_description: MIC assay (microbroth dilution) ± 25 μM EPI
Type: cell-based
test_parameters: Klebsiella aerogenes, ATCC13048, no EPI, read-out: MIC (μg/ml) ± EPI: None

compound: CCN1CCN(C(=O)N[C@@H](C(=O)N[C@@H]2C(=O)N3[C@@H]2SC(C)(C)[C@@H]3C(=O)O)c2ccccc2)C(=O)C1=O [Piperacillin, piperacillin]
unit_of_measurement: µg/mL
MIC: 4
//
compound: C[C@H]1COc2c(N3CCN(C)CC3)c(F)cc3c(=O)c(C(=O)O)cn1c23 [Levofloxacin]
unit_of_measurement: µg/mL
MIC: 0.177
//
compound: O=C(O)c1cn(C2CC2)c2cc(N3CCNCC3)c(F)cc2c1=O [Ciprofloxacin]
unit_of_measurement: µg/mL
MIC: 0.037
//
compound: CO/N=C(\C(=O)N[C@@H]1C(=O)N2C(C(=O)O)=C(COC(C)=O)CS[C@H]12)c1csc(N)n1 [CEF, cefotaxime]
unit_of_measurement: µg/mL
MIC: 2

====

Listed here: items and their measured MIC (μg/ml) ± EPI: PAβN.
System: Escherichia coli ATCC 25922
test_description: MIC assay (microbroth dilution) ± 25 μM EPI
Type: cell-based
test_parameters: E. coli ATCC 25922; + 25 μM PAβN
assay_metric: MIC (μg/ml) ± EPI: PAβN (µg/mL)

chemical_string: C[C@H]1COc2c(N3CCN(C)CC3)c(F)cc3c(=O)c(C(=O)O)cn1c23
tgt: Escherichia coli ATCC 25922
test_result: 0.022
--
chemical_string: O=C(O)c1cn(C2CC2)c2cc(N3CCNCC3)c(F)cc2c1=O
tgt: Escherichia coli ATCC 25922
test_result: 0.022
--
chemical_string: CO/N=C(\C(=O)N[C@@H]1C(=O)N2C(C(=O)O)=C(COC(C)=O)CS[C@H]12)c1csc(N)n1
tgt: Escherichia coli ATCC 25922
test_result: 0.25
--
chemical_string: CCN1CCN(C(=O)N[C@@H](C(=O)N[C@@H]2C(=O)N3[C@@H]2SC(C)(C)[C@@H]3C(=O)O)c2ccccc2)C(=O)C1=O
tgt: Escherichia coli ATCC 25922
test_result: 4

These data points were gathered from patent US9540389B2.
